Species: Rattus norvegicus
test.protocol: The compound was tested for enhancement of electrically induced release of [3H]GABA from rat cortical slices.
Assay type: functional
This section presents compounds with their documented EC150 values.
Enter your answer as a number in µM; do not include the unit.

The examples below pair each entry with its known result.
CCCCP(=O)(O)C(C)CCN (centres undefined) : 8
NCC(O)CP(=O)(O)Cc1ccccc1 (centres undefined) : 4
NCCCP(=O)(O)CCc1ccccc1 : 60

Turning now to a further record.
input: Form field: reported EC150 of NCCCP(=O)(O)CC1CCCCC1
output: 3

###

target.or.system: Gamma-aminobutyric acid type B receptor subunit 1 (Rattus norvegicus)
Sequence (Q9Z0U4 whole entry): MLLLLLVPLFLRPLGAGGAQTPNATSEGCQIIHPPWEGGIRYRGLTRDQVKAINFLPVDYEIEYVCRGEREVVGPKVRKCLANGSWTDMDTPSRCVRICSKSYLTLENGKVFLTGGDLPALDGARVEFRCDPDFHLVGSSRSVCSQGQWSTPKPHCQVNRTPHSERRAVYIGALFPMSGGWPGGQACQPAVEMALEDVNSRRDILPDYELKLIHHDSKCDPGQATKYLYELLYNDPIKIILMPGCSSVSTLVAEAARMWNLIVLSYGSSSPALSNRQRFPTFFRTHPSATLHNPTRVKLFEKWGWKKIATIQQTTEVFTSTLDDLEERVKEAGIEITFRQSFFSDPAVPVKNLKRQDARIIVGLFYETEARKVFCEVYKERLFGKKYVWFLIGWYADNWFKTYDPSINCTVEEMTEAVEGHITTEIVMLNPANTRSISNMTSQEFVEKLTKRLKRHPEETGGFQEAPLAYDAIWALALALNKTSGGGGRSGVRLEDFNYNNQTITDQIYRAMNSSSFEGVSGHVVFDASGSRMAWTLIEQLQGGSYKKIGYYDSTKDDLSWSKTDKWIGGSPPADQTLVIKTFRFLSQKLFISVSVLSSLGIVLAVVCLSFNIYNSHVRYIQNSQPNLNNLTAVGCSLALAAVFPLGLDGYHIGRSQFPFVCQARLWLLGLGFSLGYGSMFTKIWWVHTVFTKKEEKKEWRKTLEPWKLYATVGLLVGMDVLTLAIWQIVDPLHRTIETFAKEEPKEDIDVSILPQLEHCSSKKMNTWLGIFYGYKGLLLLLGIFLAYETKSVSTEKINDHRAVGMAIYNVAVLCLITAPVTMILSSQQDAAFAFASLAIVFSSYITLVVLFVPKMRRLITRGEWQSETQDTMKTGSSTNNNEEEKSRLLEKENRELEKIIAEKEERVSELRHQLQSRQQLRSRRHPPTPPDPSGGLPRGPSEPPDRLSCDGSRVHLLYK
test.protocol: Inhibition of binding of [3H]CGP-27492 to gamma-aminobutyric acid type B receptor of rat cortex.
Could you mark each record yes if its IC50 falls strictly under 30 µM, and no if it equals or exceeds it?

Use the examples below as a reference point.
CC(C)(C)P(=O)(O)CCCN : no
NCCCP(=O)(O)Cc1ccccc1 : yes
CCCCP(=O)(O)CC(O)(CN)c1ccc(Cl)cc1 (configuration not stated) : yes
NCC(=O)CP(=O)(O)CC1CC1 : yes
CCCC(F)(F)P(=O)(O)CCCN : yes
CCCCCCP(=O)(O)CCCN : yes
NC[C@@H](O)CP(=O)(O)Cc1ccccc1 : no
CCCCOC(OCCCC)P(=O)(O)CCCN : yes
CCP(=O)(O)CCCN : yes
NCCCP(=O)(O)CCC1CCCCC1 : yes

input: Lab note: IC50 threshold 30 µM. Does this molecule come in strictly under it? CP(=O)(O)CC(CN)c1ccc(Cl)cc1 (configuration not stated)
output: yes

input: Determine whether this molecule shows IC50 lower than 30 µM (ties excluded): NC[C@@H](O)CP(=O)(O)CC1CCCCC1
output: yes

input: Find out if reported IC50 for NCCCP(=O)(O)C1CCCCO1 (configuration not stated) is less than 30 µM
output: no

input: Criterion: IC50 strictly below 30 µM. Is it met by NCCCP(=O)(O)C1CCCO1 (configuration not stated) ?
output: no

input: For NC[C@H](O)CP(=O)(O)Cc1ccccc1 , is the recorded IC50 below the cut-off of 30 µM?
output: yes

###

Collected EC150 values appear next to each entry.
Organism: Rattus norvegicus
test.protocol: The compound was tested for enhancement of electrically induced release of [3H]GABA from rat cortical slices.
Format: functional
Give the number; µM is assumed, so skip it.

CCCC(F)(F)P(=O)(O)CCCN : 115
CCCC(O)P(=O)(O)CCCN (stereo not drawn) : 44
NCCCP(=O)(O)C(O)c1ccccc1 (stereo not drawn) : 10

input: Endpoint output: EC150 of CCOC(OCC)P(=O)(O)CC(O)CN (stereo not drawn) . Value?
output: 9

input: Name the reported EC150 value associated with the compound NCCCP(=O)(O)CC1CCCCO1 (stereo not drawn)
output: 12

input: Look at this compound and give its reported EC150. CCCCCCP(=O)(O)CCCN
output: 14

input: Looking for the measured EC150 of CCOC(OCC)P(=O)(O)C[C@@H](O)CN , can you help?
output: 11

input: Any idea what EC150 was measured for NCCCP(=O)(O)C1CCCO1 (stereo not drawn) ?
output: 89

###

Species on record: Rattus norvegicus
test.protocol: The compound was tested for enhancement of electrically induced release of [3H]GABA from rat cortical slices.
Assay type: functional
Output 1 for EC150 not less than 9 µM; output -1 otherwise.

NCCCP(=O)(O)CN : -1
CCOC(OCC)P(=O)(O)CCCN : 1
NC[C@@H](O)CP(=O)(O)Cc1ccccc1 : 1

Turning now to a further record.
input: Hi, just wondering whether CCCOC(OCCC)P(=O)(O)CCCN shows EC150 of 9 µM or higher.
output: 1
